# fluorescence quantum yield (Φf) annotations
# EXPERIMENTAL_DETAILS: Quantum yield determination (absolute, integrating sphere)
# RUN_PARAMETERS: PBS, pH 7.4
METRIC: fluorescence quantum yield (Φf)

COMPOUND	METRIC	MEASURED
CCN(CC)c1ccc2c(C)cc(=O)oc2c1 [Compound 6, 7-diethylamino-4-methylcoumarin, reference compound]	fluorescence quantum yield (Φf)	0.06
CCN(CC)c1ccc2c(C)cc(N(CC)CC)[o+]c2c1.O=C([O-])C(F)(F)F [Compound 8]	fluorescence quantum yield (Φf)	0.16
Cc1cc(=[N+]2CCC(CCCC3CC[N+](=c4cc(C)c5cc6c7c(c5o4)CCCN7CCC6)CC3)CC2)oc2c3c4c(cc12)CCCN4CCC3.O=C([O-])C(F)(F)F.O=C([O-])C(F)(F)F (stereo not shown) [Compound 20]	fluorescence quantum yield (Φf)	0.45
Cc1cc(N2CCC2)[o+]c2cc(N3CCC3)ccc12.O=C([O-])C(F)(F)F [Compound 11]	fluorescence quantum yield (Φf)	0.79

The measurements presented in this section are drawn from patent US12528944B2.
